# Tested on: HeLa
# assay notes: Cytotoxicity against human HeLa cells after 6 days by MTT method
# Assay type: functional, cell-based
# details: 144 h
parameter: IC50

- compound: "CC1(C)CCC(=O)[C@]2(C)OO[C@H]3C[C@]12CCC3=O [TALAPEROXIDE D]"
  measured value: "1.31 µg/mL"
- compound: "CC(=O)O[C@H]1CC[C@]23C[C@@H]1OO[C@]2(C)C(=O)CCC3(C)C [TALAPEROXIDE A]"
  measured value: "13.7 µg/mL"
- compound: "CC1(C)CCC(=O)[C@@]2(C)OO[C@@H]3C[C@@]12CC[C@H]3O"
  measured value: "7.97 µg/mL"
- compound: "CC1(C)CCC(=O)[C@@]2(C)OO[C@H]3C[C@]12CCC3=O [TALAPEROXIDE C]"
  measured value: "12.7 µg/mL"
- compound: "CC(=O)O[C@H]1CC[C@]23C[C@@H]1OO[C@@]2(C)C(=O)CCC3(C)C [TALAPEROXIDE B]"
  measured value: "1.73 µg/mL"
